test-description: qHTS of pediatric cancer cell lines to identify multiple opportunities for drug repurposing: Primary screen for Saos-2 cells (AID 1347097); also: % is scaled to controls: 0 for no effect and ±100 for the full control effect; nearly all actives have a fitted effect of over 40% in size
condition: Saos-2 viability, CellTiter-Glo ATP luminescence, 48 h; series mostly up to 46 µM
Description: Drug repurposing or repositioning has been offered as a strategy for drug development in oncology programs. This approach has special potential for childhood cancers and other rare or orphan diseases, where the expected return on new drug development has been a disincentive to pharmaceuticals. […] We employed a titration-based paradigm (quantitative high-throughput screening or qHTS), where all compounds were tested at multiple concentrations for their effect on cell viability. […]
Records with an inconclusive call do not appear. Active and inactive are the calls of the source. Calls follow the shape of the dose curve; as a rule, active = well fitted cell-killing curve with a large enough effect; inconclusive = small, poorly fitted or top-dose-only effect; inactive = no such curve, though single readings can be large or run the other way.

molecule-smiles	outcome
CC(C)(C)NC(=O)[C@@H]1CN(Cc2cccnc2)CCN1C[C@@H](O)C[C@@H](Cc1ccccc1)C(=O)N[C@H]1c2ccccc2C[C@H]1O	inactive
CC1(C)O[C@@H]2[C@@H](CO[C@@]3(COS(N)(=O)=O)OC(C)(C)O[C@@H]23)O1	inactive
NC(=O)CC[C@@H]1NC(=O)[C@H](Cc2ccccc2)NC(=O)[C@H](Cc2ccc(O)cc2)NC(=O)CCSSC[C@@H](C(=O)N2CCC[C@H]2C(=O)N[C@@H](CCCN=C(N)N)C(=O)NCC(N)=O)NC(=O)[C@H](CC(N)=O)NC1=O	inactive

====

test-description: qHTS of pediatric cancer cell lines to identify multiple opportunities for drug repurposing: Confirmatory screen for SJ-GBM2 cells (AID 1347116);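 also: 48 hour compound exposure; nearly all actives have a fitted effect of over 60% in size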; also: potency is read from the fitted curve at half-maximal effect
condition: SJ-GBM2 glioblastoma cells, viability; series mostly up to 45.9 µM
Inconclusive results are not listed. Activity calls are given as the source filed them. Calls follow the shape of the dose curve; as a rule, active = well fitted cell-killing curve with a large enough effect; inconclusive = small, poorly fitted or top-dose-only effect, or effect the other way; inactive = no such curve, though single readings can be large or run the other way. Numbered stars: 1 amine (or outer) side, 2 acyl side, 3 side chain; on linkers, the order of the positions; unused ones are H or OH. Bridge positions count the residues as written; N and C are the ends. Square brackets hold non-standard residues; d marks the D form. Peptide text beside a SMILES is read from it. I, II: the chains in the order shown. Actinocin(9to1) = Cc1c2oc3c(C)ccc(C(=O)[*:1])c3nc-2c(C(=O)[*:2])c(N)c1=O; NMeV = CN[C@H](C(=O)O)C(C)C; Sar = CNCC(=O)O
observed-property: Potency

compound	recorded-measurement
CCCC(=O)O[C@]1(C(=O)CO)CC[C@H]2[C@@H]3CCC4=CC(=O)CC[C@]4(C)[C@H]3[C@@H](O)C[C@@]21C	inactive
COc1cc(C=C2CCC/C(=C\c3ccc(O)c(OC)c3)C2=O)ccc1O	18.5 µM (active)
CC(=O)Oc1ccc(C(c2ccc(OC(C)=O)cc2)c2ccccn2)cc1	inactive
C[C@]12C=CC(=O)C=C1CC[C@@H]1[C@@H]2[C@@H](O)C[C@@]2(C)[C@H]1CC[C@]2(O)C(=O)CO	inactive
O=C(CCCN1CCC(O)(c2ccc(Br)cc2)CC1)c1ccc(F)cc1	inactive
COc1cccc2c1C(=O)c1c(O)c3c(c(O)c1C2=O)C[C@@](O)(C(=O)CO)C[C@@H]3O[C@H]1C[C@H](N)[C@H](O)[C@H](C)O1	2.61 µM (active)
CN(C)C(=S)SC(=S)N(C)C	inactive
COCc1c(C(C)C)nc(C(C)C)c(/C=C/[C@@H](O)C[C@@H](O)CC(=O)O)c1-c1ccc(F)cc1	2.61 µM (active)
Cc1c2oc3c(C)ccc(C(=O)N[C@@H]4C(=O)N[C@H](C(C)C)C(=O)N5CCC[C@H]5C(=O)N(C)CC(=O)N(C)[C@@H](C(C)C)C(=O)O[C@@H]4C)c3nc-2c(C(=O)N[C@@H]2C(=O)N[C@H](C(C)C)C(=O)N3CCC[C@H]3C(=O)N(C)CC(=O)N(C)[C@@H](C(C)C)C(=O)O[C@@H]2C)c(N)c1=O (I: T[dV]P[Sar][NMeV] / II: T[dV]P[Sar][NMeV]; ester I:1-I:C, II:1-II:C; linker I:N-II:N via Actinocin(9to1))	0.0261 µM (active)
C=C1C[C@H]2[C@@H]3C=C(C)C4=CC(=O)CC[C@]4(C)[C@H]3CC[C@]2(C)[C@@]1(OC(C)=O)C(C)=O	inactive
NC(=O)CC[C@@H]1NC(=O)[C@H](Cc2ccccc2)NC(=O)[C@H](Cc2ccc(O)cc2)NC(=O)CCSSC[C@@H](C(=O)N2CCC[C@H]2C(=O)N[C@@H](CCCN=C(N)N)C(=O)NCC(N)=O)NC(=O)[C@H](CC(N)=O)NC1=O	inactive
NC(CO)(CO)CO	inactive
C[C@H]1C[C@H]2[C@@H]3CCC4=CC(=O)C=C[C@]4(C)[C@@]3(Cl)[C@@H](O)C[C@]2(C)[C@@]1(O)C(=O)CO	inactive
CC(=O)OCC(=O)[C@@]12N=C(C)O[C@@H]1C[C@H]1[C@@H]3CCC4=CC(=O)C=C[C@]4(C)[C@H]3[C@@H](O)C[C@@]12C	1.04 µM (active)

====

test-description: Stat Signaling Pathway (AID 446);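 also: ME-180 cervical cancer cells given 40 pM IL-6 alongside compound; SIE-controlled beta-lactamase reporter measured as 460/530 nm FRET emission ratio; % is scaled to controls: 0 for no effect and ±100 for the full control effect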
condition: ME-180 (cervical carcinoma) SIE beta-lactamase reporter, IL-6 stimulated, 5 h; at 38 µM (top of the series)
Inconclusive results are not listed.

compound	result-unit	activity, negative = inhibition
CC(C)COC(=O)OCN1C(=O)CN(CCN2CC(=O)N(COC(=O)OCC(C)C)C(=O)C2)CC1=O	%	-1.3
CN1[C@@H]2CC[C@H]1CC(OC(=O)c1c[nH]c3ccccc13)C2 (stereo partly specified)	%	-14.5
C1CCc2nnnn2CC1	%	-9.49
Oc1ccc(O)cc1	%	3.99
C[C@@H]1C(=O)NC2=Nc3cccc(Cl)c3CN21	%	-15.9
C[N+]1(CCCCC[N+]2(C)CCCC2)CCCC1	%	0.841

====

test-description: Cell Viability - SH-SY5Y (AID 544);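 also: cells exposed to compound for 40 hours; nearly all actives have a fitted effect of over 55% in size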
condition: SH-SY5Y neuroblastoma cell viability
Inconclusive results are not listed. The source made the active and inactive calls. The call rests on the fitted dose curve; in most records, active means well fitted cell-killing curve with a large enough effect; inconclusive means small, poorly fitted or top-dose-only effect; inactive means flat fitted curve, though single readings scatter.
Classes used: true for active, false for inactive

molecule-smiles	classification
Oc1ccc(O)cc1	true
O=C(O)CCCCC(=O)O	false
CC/C(=C(/CC)c1ccc(O)cc1)c1ccc(O)cc1	true
O=c1ccc2ccccc2o1	false
Nc1ccc(C(=O)O)cc1	false
C=CCc1ccc(O)c(OC)c1	false
COc1cccc2c1C(=O)c1c(O)c3c(c(O)c1C2=O)C[C@@](O)(C(=O)CO)C[C@@H]3O[C@H]1C[C@H](N)[C@H](O)[C@H](C)O1	true
CCCCCCc1ccc(O)cc1O	false
CC(=O)Oc1ccc(C(c2ccc(OC(C)=O)cc2)c2ccccn2)cc1	false

====

test-description: qHTS of pediatric cancer cell lines to identify multiple opportunities for drug repurposing: Primary screen for BT-12 cells (AID 1347101); also: nearly all actives have a fitted effect of over 25% in size
condition: BT-12 viability, CellTiter-Glo luminescence, 48 h; series mostly up to 57.3 µM
Records with an inconclusive call do not appear. The source made the active and inactive calls. The call rests on the fitted dose curve; in most records, active means well fitted cell-killing curve with a large enough effect; inconclusive means small, poorly fitted or top-dose-only effect; inactive means flat fitted curve, though single readings scatter.
Classes used: active, inactive

compound	classification
Cc1ccc(O)c2ncccc12	active
CCOC(=O)COc1ccc2c(C)c(CCN(CC)CC)c(=O)oc2c1Cl	inactive
Cc1onc(-c2c(Cl)cccc2Cl)c1C(=O)N[C@@H]1C(=O)N2[C@@H]1SC(C)(C)[C@@H]2C(=O)O	inactive
Cc1cc(=O)n(-c2ccccc2)n1C	inactive
CC1=C(C(=O)O)N2C(=O)[C@@H](NC(=O)[C@H](N)c3ccc(O)cc3)[C@H]2SC1	inactive
C[C@@H]1C[C@H]2[C@@H]3C[C@H](F)C4=CC(=O)C(Cl)=C[C@]4(C)[C@@]3(F)[C@@H](O)C[C@]2(C)[C@@]1(O)C(=O)CO	inactive
COc1c2occc2c(OC)c2c(=O)cc(C)oc12	inactive
CC(C)(CO)[C@@H](O)C(=O)NCCCO	inactive
Cc1c(F)c(N2CCNC(C)C2)cc2c1c(=O)c(C(=O)O)cn2C1CC1 (configuration not stated)	inactive
CC1(C)OC[C@@H](COC(=O)CCc2ccc(OC[C@@H](O)CNCCNC(=O)N3CCOCC3)cc2)O1	inactive
O=C(O)CCCCC(=O)O	inactive
Cc1ncc(CSSCc2cnc(C)c(O)c2CO)c(CO)c1O	inactive

====

Quick reference for activation among some compounds
target-system: Glucocorticoid receptor (Homo sapiens)
test-description: qHTS assay for small molecule agonists of glucocorticoid receptor signaling (AID 588532);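 also: 100% = dexamethasone at 0.1 µM and 0% = DMSO only wells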
condition: HeLa MMTV-bla, beta-lactamase ratio, agonist, 18 h; stronger effect = higher value; percent of dexamethasone control, DMSO zero
Inconclusive results are not listed.

molecule-smiles	target-system	result-unit	activation
O=C(O)CCCCC(=O)O	Glucocorticoid receptor (Homo sapiens)	%	6.23
C=C(CC)C(=O)c1ccc(OCC(=O)O)c(Cl)c1Cl	Glucocorticoid receptor (Homo sapiens)	%	-8.92
CN(C)/N=N/c1nc[nH]c1C(N)=O	Glucocorticoid receptor (Homo sapiens)	%	-5.55
C[C@]12CC[C@@H]3c4ccc(O)cc4CC[C@H]3[C@@H]1CC[C@@H]2O	Glucocorticoid receptor (Homo sapiens)	%	-6.54
Oc1ccc(O)cc1	Glucocorticoid receptor (Homo sapiens)	%	-0.636
CC/C(=C(/CC)c1ccc(O)cc1)c1ccc(O)cc1	Glucocorticoid receptor (Homo sapiens)	%	-20.1

Reference source: PubChem BioAssay (NCATS)
